All values here come from paper PMC7822874.

Reported viability at 3 µM values for the following molecules.
assay: in vitro; conditions: human, hepg2-a16-cd81egfp cells, % viability
Numeric answer only, unit % assumed.

Check out these entries, answers already filled in.
>>> value_measured("Cc1cccc(Nc2cc(C)c3c(O)cccc3n2)c1C")
88.1
>>> value_measured("CCn1cnc2c(Nc3cc(F)cc(F)c3)nc(C#N)nc21")
79.4

Respond only with viability at 3 µM recorded for CCCc1c(CC)c(=N)c2ccccc2n1C
83.6

Hello, please tell me recorded viability at 3 µM for this one: O=C(Nc1ccc2c(N3CCCCC3)ncnc2c1)c1cc(F)cc(F)c1
53.4

Complete the entry with viability at 3 µM for CC(C)CCN(CCC(C)C)CC(O)Cn1c2ccccc2c(=O)c2ccccc21 (stereo not drawn)
88.6

State its viability at 3 µM: COc1ccc(/C=N/Nc2cc(C)nc(-n3nc(C)cc3C)n2)c(OC)c1
91

Answer with the recorded viability at 3 µM for the molecule listed here: O=C(NC(c1ccccc1)c1cc(Cl)c2cccnc2c1O)c1cccnc1 (stereo not drawn)
69.7

Look up and report measured viability at 3 µM for this entry: COc1ccc(-c2c[n+](-c3ccccc3)c3n2CCS3)cc1
88.3

Fill in reported viability at 3 µM for this entry: NS(=O)(=O)c1ccc(N/N=C/c2cn(-c3ccccc3)nc2-c2cccs2)cc1
94.1

* * *

Each entry below carries its recorded viability at 3 µM.
experiment: in vitro; conditions: human, hepg2-a16-cd81egfp cells, % viability
Respond with the bare value in %.

>>> value_measured("Cc1cc(C)n(-c2nnc(N3CCN(c4ccccc4)CC3)nn2)n1 [MLS000695202]")
93.9
>>> value_measured("Cc1nc2ccc(NC(=O)c3cc(S(=O)(=O)N(C)c4ccccc4)ccc3Cl)cc2s1 [MLS000393823]")
59.7
>>> value_measured("CC1(C)N=C(N)N=C(N)N1c1ccc(OCCCOc2ccccc2)c(Cl)c1 [MLS000738223]")
34.6
>>> value_measured("COc1ccc(-n2nc(C(=O)NCC(=O)N3CCN(c4ccccc4OC)CC3)c3ccccc3c2=O)c(OC)c1 [MLS000936211]")
90.4
>>> value_measured("CNc1ccc2oc(C[C@H]3O[C@@]4(CC[C@H]3C)O[C@H]([C@H](C)C(=O)c3ccc[nH]3)[C@H](C)C[C@H]4C)nc2c1C(=O)O [MLS001056783]")
19.2
>>> value_measured("CCOc1ccc(Nc2cc(=O)oc3ccccc23)cc1 [MLS000519261]")
103
>>> value_measured("Oc1cc(/C=C/c2c(F)cccc2Cl)nc2ccccc12 [MLS000862522]")
102

Tell me its viability at 3 µM given COc1ccc(Nc2cc(O)c3ncccc3c2)cc1 [NCGC00183797] as the entry.
69

* * *

test: in vitro; settings: human, HepG2 cells; n = 1
measurement.name: CC50 at 48 h
Give the value; after it, write the unit.

Sample records with CC50 at 48 h:
>>> value_measured("Cc1cc(Cl)ccc1-c1ccc(CNC2CN(C(=O)OC(C)(C)C)C2)cc1 [NCGC00374248-01]")
"34.3 µM"
>>> value_measured("c1csc(-c2ccnc(N[C@H]3CO[C@H]4[C@@H]3OC[C@@H]4NCC3CCCCC3)n2)c1 [NCGC00395181-01]")
"49.8 µM"
>>> value_measured("Nc1ncnc2c1ncn2[C@@H]1O[C@H](CN[S+](=O)([O-])NC(=O)c2cccc(-c3noc(-c4ccccc4F)n3)c2)[C@@H](O)[C@H]1O [NCGC00183809-01]")
"1.72 µM"
>>> value_measured("O=C(Nc1cc(C(F)(F)F)cc(C(F)(F)F)c1)Nc1cnn(-c2ccc([N+](=O)[O-])cc2)c1C(F)(F)F [MLS000851511-01]")
"10.9 µM"
>>> value_measured("CCOC(=O)C1CCN(C(=O)c2c(C)oc3c2C(=O)c2ccccc2C3=O)CC1 [MLS000724686-01]")
"15.3 µM"

Give CC50 at 48 h for Oc1ccc(-c2nnc(S)n2-c2ccc3c(c2)OCCO3)c(O)c1 [MLS000332001-01]
17.2 µM

Return reported CC50 at 48 h. Input molecule: c1ccc(-c2nc(NCc3ccco3)c3ccccc3n2)nc1 [MLS000040057-01]
27.3 µM

Provide one value: measured CC50 at 48 h of O=S(=O)(Nc1cc2nc3ccccc3nc2n1Cc1ccccc1)c1ccc(Cl)cc1 [MLS002583111-01]
19.3 µM
